Measured values drawn from ChEMBL document CHEMBL1152540 for this set.

Assay: Antioxidant activity assessed as inhibition of H2O2-induced bovine serum albumin oxidation after 1 hr by spectrophotometry
For each entry below, report its pIC50 value.
One number for each entry, as −log10 of the molar value.

COc1ccc(/C=C/C(=O)OC[C@H]2O[C@@H](O[C@H]3OC=C[C@@]4(O)[C@@H]3[C@](C)(O)C[C@@H]4O)[C@H](O)[C@@H](O)[C@@H]2O)cc1 : 4.98

Find the recorded pIC50 belonging to `COc1ccc(/C=C/C(=O)OC[C@H]2O[C@@H](O[C@H]3OC=C[C@@]4(O)[C@@H]3[C@](C)(O)C[C@@H]4O)[C@H](O)[C@@H](O)[C@@H]2O)cc1OC` and report it.
4.97
